- target or system: VEGF-165 (UniProt P15692-4 27-191)
- Sequence (P15692 other isoform, or with tags, fused parts or gaps): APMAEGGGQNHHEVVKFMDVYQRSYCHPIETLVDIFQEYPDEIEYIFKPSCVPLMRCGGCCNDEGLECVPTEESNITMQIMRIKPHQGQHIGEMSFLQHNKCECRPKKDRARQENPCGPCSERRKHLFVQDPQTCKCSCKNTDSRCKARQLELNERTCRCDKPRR
- measurement protocol: EMSA; 10 nM VEGF-165; PBS + 0.005% Tween 20, pH 7.4 (+50 mM KCl for aptamer B); 2.5 nM aptamer heated at 90 C and cooled, 1 h incubation (temperature not stated, RT?); 7.5% PAGE in 0.5x TB pH 8.3 at 4 C
- experimental conditions: protein: recombinant; tags: His-tag; chain copies: 2; label: 5' fluorescein

>  <binder>
CT30A (structured_DNA) DNA: CAATTGGGCCCGTCCGTATGGTGGGTTTTTTTTTTTTTTTTTTTTTTTTTTTTTTTGCCCGTCTTCCAGACAAGAGTGCAGGGC

>  <binding result>
binds

$$$$
>  <binder>
CT20A (structured_DNA) DNA: CAATTGGGCCCGTCCGTATGGTGGGTTTTTTTTTTTTTTTTTTTTTGCCCGTCTTCCAGACAAGAGTGCAGGGC

>  <binding result>
binds

$$$$
>  <binder>
AT0C (structured_DNA) DNA: GCCCGTCTTCCAGACAAGAGTGCAGGGCCAATTGGGCCCGTCCGTATGGTGGGT

>  <binding result>
binds

$$$$
>  <binder>
CT0A (structured_DNA) DNA: CAATTGGGCCCGTCCGTATGGTGGGTGCCCGTCTTCCAGACAAGAGTGCAGGGC

>  <binding result>
binds

$$$$
>  <binder>
AT20C (structured_DNA) DNA: GCCCGTCTTCCAGACAAGAGTGCAGGGCTTTTTTTTTTTTTTTTTTTTCAATTGGGCCCGTCCGTATGGTGGGT

>  <binding result>
binds

$$$$
>  <binder>
CT10A (structured_DNA) DNA: CAATTGGGCCCGTCCGTATGGTGGGTTTTTTTTTTTGCCCGTCTTCCAGACAAGAGTGCAGGGC

>  <binding result>
binds

$$$$
>  <binder>
AT30C (structured_DNA) DNA: GCCCGTCTTCCAGACAAGAGTGCAGGGCTTTTTTTTTTTTTTTTTTTTTTTTTTTTTTCAATTGGGCCCGTCCGTATGGTGGGT

>  <binding result>
binds

$$$$

src = paper PMC6883073
